test system: T1, Spy_(29-138) (UniProt P77754 52-161)
T1 construct: source: E. coli BL21 (DE3), purified (Ni-NTA, cation exchange, SEC); not shown: His6, N-terminal, cleaved; SUMO, N-terminal, cleaved
T1 sequence (looked up): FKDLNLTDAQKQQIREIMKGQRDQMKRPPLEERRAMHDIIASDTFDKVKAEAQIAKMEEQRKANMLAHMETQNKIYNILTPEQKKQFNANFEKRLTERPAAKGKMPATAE
experiment description: BLI; Octet RED96; client biotinylated and loaded on streptavidin sensors; Spy or Spy variant in solution at 0.25, 0.5, 1, 1.5 and 2 μM; 40 mM HEPES, 150 mM NaCl, pH 7.5; Kd calculated as koff/kon
conditions used: both partners purified
quantity name: Kd (nM)
Write it as a number; the unit nM goes unstated.

Query string: Query (binder): Im7 H40W L53A I54A (natural protein, biotin (EZ-link NHS-biotin, 1:1 molar ratio of biotin to protein), Im7 (colicin E7 immunity protein) with H40W L53A I54A; Spy was made with an N-terminal His6-SUMO tag that was cleaved; also called Im7AAW; partially folded client; source: purified by a similar procedure to Spy) MELKNSISDYTEAEFVQLLKEIEKENVAATDDVLDVLLEWFVKITEHPDGTDAAYYPSDNRDDSPEGIVKEIKEWRAANGKPGFKQG ; field requested: Kd
Result string: 313
